- Experimental system: KAT2A (Homo sapiens (Human))
- Sequence (Q92830 whole entry): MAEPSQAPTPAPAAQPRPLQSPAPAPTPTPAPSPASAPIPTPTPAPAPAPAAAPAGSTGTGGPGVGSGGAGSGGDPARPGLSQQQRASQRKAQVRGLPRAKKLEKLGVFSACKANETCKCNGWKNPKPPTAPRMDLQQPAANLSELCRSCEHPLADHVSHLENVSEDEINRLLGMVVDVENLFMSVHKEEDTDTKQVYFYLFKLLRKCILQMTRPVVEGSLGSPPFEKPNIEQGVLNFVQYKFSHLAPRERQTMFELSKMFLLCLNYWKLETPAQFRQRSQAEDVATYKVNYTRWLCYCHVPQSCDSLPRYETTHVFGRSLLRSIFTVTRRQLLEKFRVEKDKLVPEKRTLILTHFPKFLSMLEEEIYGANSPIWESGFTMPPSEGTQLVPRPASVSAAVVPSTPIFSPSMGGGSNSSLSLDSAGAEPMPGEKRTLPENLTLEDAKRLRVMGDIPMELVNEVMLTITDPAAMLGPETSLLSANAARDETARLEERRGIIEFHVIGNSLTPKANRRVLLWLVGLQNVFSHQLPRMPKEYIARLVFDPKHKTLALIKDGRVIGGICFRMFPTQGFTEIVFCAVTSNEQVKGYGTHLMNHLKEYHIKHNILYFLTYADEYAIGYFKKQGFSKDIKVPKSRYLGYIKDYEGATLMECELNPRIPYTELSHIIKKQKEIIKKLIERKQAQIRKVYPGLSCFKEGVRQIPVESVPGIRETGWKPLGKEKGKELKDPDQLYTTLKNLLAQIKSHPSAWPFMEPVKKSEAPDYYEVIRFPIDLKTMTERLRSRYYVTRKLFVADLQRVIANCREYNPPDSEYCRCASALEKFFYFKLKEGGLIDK
- Assay name: KAT2A acetyltransferase biochemical assay (RapidFire mass spectrometry, AcCoA to CoA)
- Measurement conditions: KAT2A Ki at 1 μM AcCoA, 5 μM H3 1-21 peptide, 0.5 nM KAT2A, 90-minute reaction
pKi: −log10 of the molar value.
Quantity kind: pKi

[Q] Return the recorded pKi value; entry: CN1CC(C)(C)C[C@H]1C(=O)N[C@H]1C[C@H](Oc2ccc(C(C)(C)C(=O)O)cc2-c2cccc(F)c2C2CCC2)C[C@H]1O
[A] 9.82

[A] CC(C)S(=O)(=O)NC(=O)Cc1ccc(O[C@@H]2CC[C@@H](NC(=O)[C@]3(F)CNC4(CCC4)C3)C2)c(-c2cccc(F)c2C2CCC2)c1 (single isomer, unassigned) [Example C41]
[B] CN1CC2(CCOCC2)C[C@H]1C(=O)N[C@@H]1CC[C@@H](Oc2ccc(C(=O)O)cc2-c2ccccc2C2CCC2)C1 (single isomer, unassigned) [Example D2]
[C] CC(C(=O)NS(C)(=O)=O)c1ccc(O[C@@H]2CC[C@@H](NC(=O)[C@@H]3CC(C)(C)CN3C)C2)c(-c2cccc(F)c2C2CCC2)c1 (single isomer, unassigned) [Example E9]
[Q] List by increasing pKi. // respond by listing labels in the order requested
[A] B, A, C
(B: 7.15, A: 8.39, C: 9.68)
